Target: T1, mouse big-ET-1 (SEQ ID NO:437) (Mus musculus, UniProt P22387)
T1 sequence (P22387 53-91 limits assumed): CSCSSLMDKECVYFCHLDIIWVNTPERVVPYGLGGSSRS
Test: Surface plasmon resonance (Biacore) binding, mAb capture format, 37° C.
Conditions: analyte mouse big-ET-1, mAb capture, KD=kd/ka
pKd: −log10 of the molar value.
measuredQuantity: pKd

{"molecule": "H1M6492N: anti-big-ET-1 hybridoma antibody, H1M Fc; HCVR/LCVR SEQ ID NO: 34/42 (antibody, V domains shown, mouse Fc) VH: EVQLVESGGGLVKPGGSLRVSCVASGFTFSNAWMTWVRQTPGKGLECVGRIKSRTDGGTVDYVAPVKGRFTISRDDSKNTLYLQMNSLKAEDTAVYYCRADLDYWGQGTLVTVSS VL: DVVMTQSPLSLPVSLGQPASISCRSSQSLVHSDGITYLNWFQQRPGQSPRRLIYKISNRDSGVPDRFSGSGSGTDFTLKFSRVEAEDVGVYFCMQGTHWPYTFGQGTKLEIK", "recordedMeasurement": "< 6.00"}
